As shown below, each of these compounds has a reported growth value.
System: MDA-MB-435 melanoma
assayProtocol: NCI-60 one-dose screen, 48 h (100 = growth as untreated, 0 = no growth, -100 = all killed)
cond: 10 µM unless noted
Compounds without any hit were thinned out: in the full panel of roughly 83,000, 20% have a hit.
Give a bare numeral; the unit % is implied.

Oc1ccccc1/C=N/c1ccccn1 | 122
CNCCCOc1c(Br)cc(CCNC(=O)/C(Cc2ccc(OC)c(Br)c2)=N/O)cc1Br | 41
N#Cc1c2c(c(N)[nH]c1=O)C(=O)NC2(O)c1ccccc1 (stereo not given) | 109
COC(=O)c1oc2c(C(C)=O)c(OCCN3CCCCC3)ccc2c1C | 80.8
C#C[C@@]1(O)[C@@H](CO)O[C@@H](n2cc(Br)c3c(Cl)ccnc32)[C@@H]1O | 56.7

Considering `Fc1ccc(Nc2ncnc3ccc(-c4cn[nH]c4)cc23)cc1Cl` , its growth with MDA-MB-435 melanoma was recorded as 79.8

Considering `CCOc1ccc(Cc2nccc3cc(OCC)c(OCC)cc23)cc1OCC` , its growth with MDA-MB-435 melanoma was recorded as 60.2

Considering `Cc1cccc(Cc2cnc(NC(=O)CCc3ccc(C)o3)s2)c1` , its growth with MDA-MB-435 melanoma was recorded as -23.1

Considering `CS(=O)(=O)Nc1cccc(-c2ccc3ncnc(Nc4cncc(Cl)c4)c3c2)c1` , its growth with MDA-MB-435 melanoma was recorded as 49.9

Considering `C=C1C(=O)O[C@H]2[C@H]1CC/C(C(=O)NCCOCCOCC(=O)Nc1ccc(OC)c(C(N)=O)c1O)=C\CC[C@@]1(C)O[C@@H]21` , its growth with MDA-MB-435 melanoma was recorded as 104

Considering `C=C1C(=O)O[C@H]2[C@H]1CC/C(COC(=O)c1ccc3ccccc3c1)=C\CC[C@@]1(C)O[C@@H]21` , its growth with MDA-MB-435 melanoma was recorded as -73.8

Considering `COc1ccc(-c2nn(-c3ccc(NC(=O)Nc4ccc(Cl)c(C(F)(F)F)c4)cc3)cc2-c2ccncc2)cc1Cl` , its growth with MDA-MB-435 melanoma was recorded as -16.6

Considering `Cc1ccc(-c2cc(-c3nnc(SCC(=O)c4ccccc4)o3)c3ccccc3n2)cc1` , its growth with MDA-MB-435 melanoma was recorded as 93.5

Considering `COc1ccc(Cn2cc(COc3ccc4c5ccnc(C)c5n(CCCc5ccccc5)c4c3)nn2)cc1` , its growth with MDA-MB-435 melanoma was recorded as 63.2

---

System: RXF 393 renal
assayProtocol: NCI-60 one-dose screen, 48 h
cond: 10 µM unless noted
Compounds without any hit were thinned out: in the full panel of roughly 83,000, 20% have a hit. The source made the active and inactive calls. Rule for the calls: active = growth percent below 10; inactive = the rest.
Pick from TRUE (active), FALSE (inactive) when you respond.

Some solved cases for reference:
COc1ccc2c(c1)C(=O)/C(=C/c1cccc(OCC(=O)c3ccccc3)c1)O2 | TRUE
COc1ccc(C2CC(c3cc(Cl)c(C)cc3OC)=NN2c2ccc(S(N)(=O)=O)cc2)cc1OC (stereo not given) | FALSE

Identify the outcome logged in this assay for the molecule shown: `O=c1c2ccccc2sc2c(N3CCCC3)nc3ccccc3c12`
FALSE

---

As shown below, each of these compounds has a reported growth value.
Tested on: SK-MEL-5 melanoma
assayProtocol: NCI-60 one-dose screen, 48 h (100 = growth as untreated, 0 = no growth, -100 = all killed)
cond: 10 µM unless noted
Compounds without any hit were thinned out: in the full panel of roughly 83,000, 20% have a hit.
Give a bare numeral; the unit % is implied.

Worked cases, answers included:
CSc1ccc(C(=O)C[n+]2cccc(C)c2)cc1 | 100
O=C1CN(CCN2CC(=O)NC(=O)C2)CC(=O)N1 | 87
O=C(Nc1ccc(-n2ccc3c(NC(=O)c4ccccc4)ncnc32)cc1)c1ccc(Cl)c(C(F)(F)F)c1 | 26.3
COc1ccc(-c2cc(-c3nnc(SC/C(=N\O)c4ccccc4)n3-c3ccccc3)c3ccccc3n2)cc1 | 108

Please turn your attention to the following entry.
Note to self: growth recorded for `CN1CCN(C(=O)/C=C/c2ccc([N+](=O)[O-])o2)CC1` was 90.1

---

Tested on: IGROV1 ovarian
assayProtocol: NCI-60 one-dose screen, 48 h (100 = growth as untreated, 0 = no growth, -100 = all killed)
cond: 10 µM unless noted
Compounds without any hit were thinned out: in the full panel of roughly 83,000, 20% have a hit.
Assign class by growth: not lower than 70% means true; lower than 70% means false.

Does `CCOc1cccc(Nc2nc(N)nc3[nH]c4ccc(O)cc4c23)c1` have a reported growth of at least 70%?
false

Does `O=C(Nc1cccc(-n2ccc3c(NC(=O)c4ccccc4)nccc32)c1)Nc1ccc(Cl)c(C(F)(F)F)c1` have a reported growth of at least 70%?
false

Does `CSc1ccc(C(=O)C[n+]2cccc(C)c2)cc1` have a reported growth of at least 70%?
true

Does CC(C)(C)NCC(O)COc1c(Br)c(Br)c(Br)c2c1OC(C)(C)C2 (configuration not stated) have a reported growth of at least 70%?
false

Does `CC(=O)Nc1ccc(OC(=O)c2ccccc2O)cc1` have a reported growth of at least 70%?
true

Does `O=C(Nc1ccc(-n2cc(-c3ccncc3)c(-c3ccc(O)c(Cl)c3)n2)cc1)c1cc(C(F)(F)F)cc(C(F)(F)F)c1` have a reported growth of at least 70%?
false

Does `CCCCCn1ncc(-c2c(O)c(O)cc3c(O)c(-c4c(C)cc5c(-c6cnn(CCCCC)n6)c(O)c(O)cc5c4O)c(C)cc23)n1` have a reported growth of at least 70%?
false

Does `O=C(Nc1ccc(-n2ccc3c(NC(=O)c4ccccc4)ncnc32)cc1)Nc1ccc(Cl)c(C(F)(F)F)c1` have a reported growth of at least 70%?
false

Does `Cc1ccc(NC(=O)CN2CCOCC2)cc1Cl` have a reported growth of at least 70%?
true

Does `O=S1(=O)N(CCNc2nccc(-c3c(-c4cccc(O)c4)nc4sccn34)n2)CCN1Cc1ccccc1` have a reported growth of at least 70%?
false

Does `CC(=O)O[C@@H]1[C@@H](OC(C)=O)[C@H](OC(C)=O)CO[C@H]1Nc1cccc2ccccc12` have a reported growth of at least 70%?
true

---

Test system: M14 melanoma
assayProtocol: NCI-60 one-dose screen, 48 h (100 = growth as untreated, 0 = no growth, -100 = all killed)
cond: 10 µM unless noted
This is part of a sample that, as a whole, favours compounds with a hit. Of some 83,000 tested, about 20% had one in any assay.
property: growth (%)
Give a bare numeral; the unit % is implied.

COc1cc(NC(=O)C#Cc2ccccc2)c(OC)cc1Cl | 49.8

Note to self: growth recorded for `Cc1[nH]n(C(=O)c2ccncc2)c(=O)c1N=Nc1ccc(S(=O)(=O)Nc2ccncn2)cc1` was 106

Note to self: growth recorded for `COc1ccc(-c2[nH]c3ccccc3c2/C=C(\C#N)S(=O)(=O)c2ccccc2)cc1` was 20.2

Note to self: growth recorded for Cc1cn([C@]2(CF)O[C@H](CO)C2C)c(=O)[nH]c1=O (stereo not given in full) was 118

Note to self: growth recorded for `Clc1ccc2c(c1)nnn1c3ncccc3c(Br)c21` was 97.7

Note to self: growth recorded for `COc1ccc(-c2nnc(SCC(=O)Nc3ccc(C(=O)/C=C/c4ccc(OC)c(OC)c4)cc3)o2)cc1` was 105

Note to self: growth recorded for `C=C1C(=O)O[C@H]2[C@H]1CC/C(COC(=O)c1cccc3ccccc13)=C\CC[C@@]1(C)O[C@@H]21` was -58.7

Note to self: growth recorded for `O=C1COc2ccccc2C(=O)N1CCCCNc1ccccc1` was 99.1

Note to self: growth recorded for `Cc1c(NC(=O)c2sc3nc4c(cc3c2N)CN(Cc2ccccc2)CC4)cccc1C(F)(F)F` was 31.2

Note to self: growth recorded for COCCNC(C(=O)c1ccccc1)c1ccccc1 (stereo not given) was 100

---

Test system: NCI-H23 lung
assayProtocol: NCI-60 one-dose screen, 48 h (100 = growth as untreated, 0 = no growth, -100 = all killed)
cond: 10 µM unless noted
The panel holds about 83,000 compounds, 20% with a hit somewhere; the sample as a whole holds those more often.
property: growth (%)
Give a bare numeral; the unit % is implied.

COc1ccc(-c2nnc(SCC(=O)Nc3ccc(C(=O)/C=C/c4ccccc4)cc3)o2)cc1OC | 88
O=C(O)c1ccccc1C(=O)c1ccc(I)cc1 | 102
COc1ccc(Cl)cc1NC(=O)c1cc2c([nH]1)-c1nc(NC(=O)C(C)(C)C)sc1CC2 | 57.8
CCC(N)(C(=O)O)c1ccc(F)cc1 (stereo unspecified) | 102
C=C1C(=O)O[C@H]2[C@H]1CC/C(COC(=O)c1ccc(Cl)nc1)=C\CC[C@@]1(C)O[C@@H]21 | 47.5
O=C(O)c1cn(C2CC2)c2cc(N3CCN(C(=O)CSc4nc(NS(=O)(=O)c5ccccc5)cc(=O)[nH]4)CC3)c(F)cc2c1=O | 94.3
O=C(Nc1ccc(-n2ccc3c(NC(=O)c4ccccc4)nccc32)cc1)c1ccc(Cl)c(C(F)(F)F)c1 | 64
COc1ccc(/C=C2/C(=O)Nc3cc(Cl)c(-c4csc(N)n4)cc32)cc1 | 58
O=C(/C=C/c1ccco1)c1cccc(Nc2nc(Nc3ccccc3)nc(Nc3ccccc3)n2)c1 | 57.6
O=C(Cn1c2ccccc2c2ccncc21)N/N=C/c1cc(O)c(O)c(O)c1 | 103

Note to self: growth recorded for `O=C(NCCNc1nccc(-c2c(-c3cccc(O)c3)nc3sccn23)n1)Nc1cc(C(F)(F)F)cc(C(F)(F)F)c1` was 90.9

Note to self: growth recorded for `S=c1ssnc1-c1ccccn1` was 44.5

Note to self: growth recorded for `COc1ccc(/C(=C/c2cc(OC)c(OC)c(OC)c2)[N+](=O)[O-])cc1` was 24.1

Note to self: growth recorded for `O=C(Nc1ccc(F)cc1)Nc1ccc(Br)c(C(F)(F)F)c1` was -7.43
